Hey, just so you know, these numbers are from ChEMBL document CHEMBL5724801.

Provide the reported Population Normal (%) of each item.
- System: HEK-293T
- testName: Multiplex assay against HEK293T
- Assay type: toxicity, cell-based
- details: human, 24 h, 10 µM, compound concentration 10 uM
Answer with a number only, understood to be in %.

Query: Can you share its Population Normal (%)? I mean this molecule: CN1[C@@H](CC(=O)c2ccccc2)CCC[C@H]1C[C@H](O)c1ccccc1.Cl [LOBELINE HYDROCHLORIDE]
Response: 100

Query: Try CCOC(=O)c1c(/C(C#N)=C\N)c2ccc(Cl)c(Cl)c2n1C next.
Response: 100

Query: Try COc1cc2nc(N3CCN(C(=O)c4ccco4)CC3)nc(N)c2cc1OC.Cl [PRAZOSIN HYDROCHLORIDE] next.
Response: 94

Query: Try Cc1cccc(NC(=O)CN2CCC(c3ccccn3)CC2)c1.Cl.Cl next.
Response: 92

Query: Try NC1=NC(=O)/C(=C2\CCNC(=O)c3[nH]c4ccccc4c32)N1 next.
Response: 100

Query: Try CCn1c(-c2ccncc2)cc2c1CCNC2=O next.
Response: 100

Query: Try Cc1ccc(-c2c(C(=O)CF)n(CCCO)c3ncnc(N)c23)cc1 next.
Response: 100

Query: Try COc1cc(N2CCN(C)CC2)ccc1Nc1nccc(-c2cn(C)c3cnccc23)n1 next.
Response: 100

Query: Try COc1ccc2c(c1OCc1ccccc1)C[C@@H](C(=O)O)N(C(=O)C(c1ccccc1)c1ccccc1)C2 [OLODANRIGAN] next.
Response: 93

Query: Try Cc1cnc(-c2cc(N3CCN(C(=O)CCS(C)(=O)=O)CC3)ncc2Cl)c(C)c1 next.
Response: 94

Query: Try Cc1c(C(=O)NCCCN(C)C)sc2ncnc(Nc3ccc(F)cc3OC(C)CF)c12 (stereo not drawn) next.
Response: 100

Query: Try CN1CC[C@@]23CCCC[C@@H]2[C@@H]1Cc1ccc(O)cc13.O=C(O)C(O)C(O)C(=O)O next.
Response: 100

Query: Try CC(C)(c1ccc(O)cc1)c1ccc(O)cc1 [BISPHENOL A] next.
Response: 100

---

- Test system: Fibroblast
- testName: Multiplex assay against human fibroblast
- Assay type: toxicity, cell-based
- details: 24 h, 1 µM, compound concentration 1 uM
Provide the reported Population Normal (%) of each item.
Answer with a number only, understood to be in %.

Query: Can you share its Population Normal (%)? I mean this molecule: CCOC(=O)c1c(/C(C#N)=C\N)c2ccc(Cl)c(Cl)c2n1C
Response: 100

Query: Try Cc1c(C(=O)NCCCN(C)C)sc2ncnc(Nc3ccc(F)cc3OC(C)CF)c12 (stereo not given) next.
Response: 100

Query: Try COc1cc(OC2CCN(C(C)=O)CC2)ccc1C(=O)N1CCC(N2C(=O)OCc3ccccc32)CC1 next.
Response: 98

Query: Try O=C(O)C(F)(F)F.O=C1NC(=O)/C(=C/c2c[nH]c(=O)c(-c3ccc(N4CCNCC4)nc3)c2)S1 next.
Response: 100

Query: Try CN1[C@@H](CC(=O)c2ccccc2)CCC[C@H]1C[C@H](O)c1ccccc1.Cl [LOBELINE HYDROCHLORIDE] next.
Response: 100

---

Provide the reported Population Healthy Nuclei (%) of each item.
- System: HEK-293T
- testName: Multiplex assay against HEK293T
- Type: toxicity, cell-based
- details: human, 24 h, 1 µM, compound concentration 1 uM
Answer with a number only, understood to be in %.

Query: Can you share its Population Healthy Nuclei (%)? I mean this molecule: O=C(NCC(=O)N1CC[C@H](N[C@H]2CC[C@@](O)(c3ccc(-c4ncccn4)cn3)CC2)C1)c1cccc(C(F)(F)F)c1
Response: 80

Query: Try CC(C)(C)c1cc(NC(=O)Nc2ccc(-c3cn4c(n3)sc3cc(OCCN5CCOCC5)ccc34)cc2)no1 next.
Response: 84

Query: Try Oc1c(CN2CCN(c3ccccn3)CC2)cc(Cl)c2cccnc12 next.
Response: 84

Query: Try Cl.Cl.OCCOCCN1CCN(C(c2ccccc2)c2ccc(Cl)cc2)CC1 (centres undefined) [HYDROXYZINE HYDROCHLORIDE] next.
Response: 78

---

Provide the reported Population Hoechst High Intensity Objects (%) of each item.
- Test system: HEK-293T
- testName: Multiplex assay against HEK293T
- Assay type: toxicity, cell-based
- details: human, 12 h, 1 µM, compound concentration 1 uM
Answer with a number only, understood to be in %.

Query: Can you share its Population Hoechst High Intensity Objects (%)? I mean this compound: Cc1ccc(-c2c(C(=O)CF)n(CCCO)c3ncnc(N)c23)cc1
Response: 0

Query: Try COc1ccc(CC(=O)NC(N/C(=N/C#N)Nc2cccc3ncccc23)C(C)(C)C)cc1OC (centres undefined) next.
Response: 0

Query: Try O=C(O)C(F)(F)F.O=C1NC(=O)/C(=C/c2c[nH]c(=O)c(-c3ccc(N4CCNCC4)nc3)c2)S1 next.
Response: 0

Query: Try Nc1nc(CC(=O)Nc2ccc(CCNC[C@H](O)c3ccccc3)cc2)cs1 [MIRABEGRON] next.
Response: 5

Query: Try COc1ccc2c(c1OCc1ccccc1)C[C@@H](C(=O)O)N(C(=O)C(c1ccccc1)c1ccccc1)C2 [OLODANRIGAN] next.
Response: 7

Query: Try CCC(=N\O)/C(C)=C/c1ccc(F)cc1 [A-079] next.
Response: 0

Query: Try COC(=O)C1=C(C)NC(C)=C(C(=O)OC(C)C)C1c1cccc2nonc12 (centres undefined) [ISRADIPINE] next.
Response: 0

Query: Try Oc1c(CN2CCN(c3ccccn3)CC2)cc(Cl)c2cccnc12 next.
Response: 7

Query: Try Cc1c(C(=O)NCCCN(C)C)sc2ncnc(Nc3ccc(F)cc3OC(C)CF)c12 (centres undefined) next.
Response: 0

---

- Tested on: HEK-293T
- testName: Multiplex assay against HEK293T
- Format: toxicity, cell-based
- details: human, 48 h, 10 µM, compound concentration 10 uM
outcomeMeasure: Population Fragmented Nuclei (%)
Answer with a number only, understood to be in %.

Query: Can you share its Population Fragmented Nuclei (%)? I mean this compound: Cc1cnc(-c2cc(N3CCN(C(=O)CCS(C)(=O)=O)CC3)ncc2Cl)c(C)c1
Response: 14

Query: Try CCCn1c(=O)c2[nH]c(C3CCCC3)nc2n(CCC)c1=O next.
Response: 14

Query: Try CN(C)C(=O)Cn1cc(-c2ccc(-c3cncc4ccccc34)cc2)cn1 next.
Response: 23

Query: Try Cc1cc(=O)n(C)c2cc(N3C(=O)CC[C@H](NS(=O)(=O)CC(C)C)[C@H]3c3ccc(Cl)cc3)ccc12 next.
Response: 12

Query: Try N#Cc1c(Oc2cccc(OS(=O)(=O)CCCC(F)(F)F)c2)cccc1C(F)(F)F next.
Response: 11

Query: Try Nc1nc(CC(=O)Nc2ccc(CCNC[C@H](O)c3ccccc3)cc2)cs1 next.
Response: 12

Query: Try COC(c1ccccc1)(c1ccccc1)[C@H](Oc1nc(C)cc(C)n1)C(=O)O next.
Response: 14

Query: Try COc1ccc2c(c1OCc1ccccc1)C[C@@H](C(=O)O)N(C(=O)C(c1ccccc1)c1ccccc1)C2 next.
Response: 12

---

- Tested on: U2OS
- testName: Multiplex assay against U2OS
- Format: toxicity, cell-based
- details: human, 24 h, 1 µM, compound concentration 1 uM
Provide the reported Population Pyknosed Nuclei (%) of each item.
Answer with a number only, understood to be in %.

Query: Can you share its Population Pyknosed Nuclei (%)? I mean this compound: Cc1cc(=O)n(C)c2cc(N3C(=O)CC[C@H](NS(=O)(=O)CC(C)C)[C@H]3c3ccc(Cl)cc3)ccc12
Response: 11

Query: Try CC[C@@H](C)Nc1nc(C)nc2c(-c3ccc(OC)nc3C)c(C)nn12 next.
Response: 8

Query: Try CN(C)C(=O)Cn1cc(-c2ccc(-c3cncc4ccccc34)cc2)cn1 next.
Response: 8

Query: Try COc1cc(OC2CCN(C(C)=O)CC2)ccc1C(=O)N1CCC(N2C(=O)OCc3ccccc32)CC1 next.
Response: 8

Query: Try CCCCC[C@H](O)/C=C/[C@H]1[C@H](O)CC(=O)[C@@H]1CCCCCCC(=O)O next.
Response: 9

Query: Try Cc1ccc(OCC(O)C(C)NC(C)C)c2c1CCC2.Cl (stereo unspecified) next.
Response: 10

---

Provide the reported Population Healthy Nuclei (%) of each item.
- Test system: HEK-293T
- testName: Multiplex assay against HEK293T
- Assay type: toxicity, cell-based
- details: human, 24 h, 10 µM, compound concentration 10 uM
Answer with a number only, understood to be in %.

Query: Can you share its Population Healthy Nuclei (%)? I mean this molecule: O=C(O)CCC/C=C\CC1C(O)CC(O)C1/C=C/C(O)COc1cccc(Cl)c1 (stereo not given)
Response: 78

Query: Try Nc1nc(-c2ccco2)c2cnn(Cc3ccccc3F)c2n1 next.
Response: 67

Query: Try CCCCC1=NC2(CCCC2)C(=O)N1Cc1ccc(-c2ccccc2-c2nnn[nH]2)cc1 next.
Response: 77

Query: Try CN(C)C(=O)Cn1cc(-c2ccc(-c3cncc4ccccc34)cc2)cn1 next.
Response: 75

Query: Try COc1cc(OC2CCN(C(C)=O)CC2)ccc1C(=O)N1CCC(N2C(=O)OCc3ccccc32)CC1 next.
Response: 78
